tested on: OVCAR-8 ovarian; experiment: NCI tumour cell line growth inhibition, 48 h; in the data active means GI50 below about 0.43 µM; inactive means the rest
Hello, when you answer, please use one of the following outcomes: Yes for active, No for inactive

These recorded examples may help you get a feel for the data.
CC1(C)CC(=O)C2=C(C1)OC(N)=C(c1nc(-c3ccccc3)cs1)C2c1ccc(Br)cc1 (stereo unspecified) = No
COC1C(O)C(CO)OC(OC2C(O)COC(OC3C(C)OC(OC4C(O[C@H]5CC[C@@]6(C)C(CC=C7[C@H]6CCC68C(=O)O[C@@](C)(CCCC(C)C)[C@H]6[C@@H](OC(C)=O)C[C@@]78C)C5(C)C)OCC(OS(=O)(=O)O)C4O)C(OC4OCC(O)C(O)C4O)C3O)C2O)C1O (stereo partly specified) = Yes
C=CCN1CC(=O)N2[C@@H](Cc3ccc(O)cc3F)C(=O)N(Cc3cccc(N4CC(N5CCN(CC)CC5)C4)n3)C[C@@H]2N1C(=O)NCc1ccccc1 = Yes
Nc1nc(Nc2ccccc2SSc2ccccc2Nc2nc(N)nc(C(Cl)(Cl)Cl)n2)nc(C(Cl)(Cl)Cl)n1 = No
N#CC1=C(/N=C/c2ccccc2)Oc2c(ccc3ccccc23)C1c1ccccc1 (stereo unspecified) = No

Exercise: Per the records of this test, what outcome belongs to CCCCCCNC(=O)Oc1ccc(/C(=C(\C)c2ccc(Cl)cc2)c2ccc(OCCN3CCCCC3)cc2)cc1 ?
Key: No

Exercise: Per the records of this test, what outcome belongs to O=C(/C=C/c1cccc(O)c1)c1cccc(-n2cc(-c3ccccc3)[nH]c2=O)c1 ?
Key: No

Exercise: Per the records of this test, what outcome belongs to NS(=O)(=O)c1ccc(-c2cc3ccncc3cc2OCc2ccccc2)cc1 ?
Key: No

Exercise: Per the records of this test, what outcome belongs to CN(CCNCc1ccccn1)CCNCc1ccccn1 ?
Key: No

Exercise: Per the records of this test, what outcome belongs to Oc1c(I)cc(I)c2cccnc12 ?
Key: No

Exercise: Per the records of this test, what outcome belongs to COc1ccc(/C=C(\C#N)n2nnc3c(F)cccc32)cc1 ?
Key: No

Exercise: Per the records of this test, what outcome belongs to CCc1cccc(C)c1NC(=O)c1sc2nc3c(cc2c1N)C(=O)CCC3 ?
Key: No

Exercise: Per the records of this test, what outcome belongs to COC1=C(OC)C(=O)C(SC/C=C(\C)CCCC(C)CCCC(C)CCCC(C)C)=CC1=O (stereo unspecified) ?
Key: No

Exercise: Per the records of this test, what outcome belongs to c1ccc2c(c1)Nc1ccncc1S2 ?
Key: No

Exercise: Per the records of this test, what outcome belongs to C[CH2][Sn]([CH2]C)([O]C(=O)c1ccccc1OC)[O][Sn]([CH2]C)([CH2]C)[O]C(=O)c1ccccc1OC ?
Key: No

Exercise: Per the records of this test, what outcome belongs to Cc1cc(C#Cc2ccc(C(C)(C)C)cc2)ccc1-n1c(/C=C/c2ccc(O)cc2O)nc2ccccc2c1=O ?
Key: No

Exercise: Per the records of this test, what outcome belongs to O=C(CC1(O)C(=O)N(Cc2ccccc2)c2ccccc21)c1ccc(C(=O)NCC2CCC3(CC2)OOC2(CCCCC2)OO3)cc1 (stereo unspecified) ?
Key: Yes

Exercise: Per the records of this test, what outcome belongs to COc1cc2c(cc1OC)-c1ncc3c(OC)c(OC)c(OC)cc3c1C2 ?
Key: No

Exercise: Per the records of this test, what outcome belongs to Cc1cc(C)nc(SC2=C(Nc3cc(Cl)ccc3O)C(=O)N(Cc3ccccc3)C2=O)n1 ?
Key: No

Exercise: Per the records of this test, what outcome belongs to Cc1cccc2c3c(sc12)C(c1ccc(Cl)cc1)C(C#N)=C(N)O3 (stereo unspecified) ?
Key: No

Exercise: Per the records of this test, what outcome belongs to Cn1cc(C2=C(c3cccc(OC[C@@H](O)CO)c3)C(=O)NC2=O)c2ccccc21 ?
Key: No
